# measurement target: EPHB2 (UniProt P29323)
# Sequence (P29323 whole entry, looked up): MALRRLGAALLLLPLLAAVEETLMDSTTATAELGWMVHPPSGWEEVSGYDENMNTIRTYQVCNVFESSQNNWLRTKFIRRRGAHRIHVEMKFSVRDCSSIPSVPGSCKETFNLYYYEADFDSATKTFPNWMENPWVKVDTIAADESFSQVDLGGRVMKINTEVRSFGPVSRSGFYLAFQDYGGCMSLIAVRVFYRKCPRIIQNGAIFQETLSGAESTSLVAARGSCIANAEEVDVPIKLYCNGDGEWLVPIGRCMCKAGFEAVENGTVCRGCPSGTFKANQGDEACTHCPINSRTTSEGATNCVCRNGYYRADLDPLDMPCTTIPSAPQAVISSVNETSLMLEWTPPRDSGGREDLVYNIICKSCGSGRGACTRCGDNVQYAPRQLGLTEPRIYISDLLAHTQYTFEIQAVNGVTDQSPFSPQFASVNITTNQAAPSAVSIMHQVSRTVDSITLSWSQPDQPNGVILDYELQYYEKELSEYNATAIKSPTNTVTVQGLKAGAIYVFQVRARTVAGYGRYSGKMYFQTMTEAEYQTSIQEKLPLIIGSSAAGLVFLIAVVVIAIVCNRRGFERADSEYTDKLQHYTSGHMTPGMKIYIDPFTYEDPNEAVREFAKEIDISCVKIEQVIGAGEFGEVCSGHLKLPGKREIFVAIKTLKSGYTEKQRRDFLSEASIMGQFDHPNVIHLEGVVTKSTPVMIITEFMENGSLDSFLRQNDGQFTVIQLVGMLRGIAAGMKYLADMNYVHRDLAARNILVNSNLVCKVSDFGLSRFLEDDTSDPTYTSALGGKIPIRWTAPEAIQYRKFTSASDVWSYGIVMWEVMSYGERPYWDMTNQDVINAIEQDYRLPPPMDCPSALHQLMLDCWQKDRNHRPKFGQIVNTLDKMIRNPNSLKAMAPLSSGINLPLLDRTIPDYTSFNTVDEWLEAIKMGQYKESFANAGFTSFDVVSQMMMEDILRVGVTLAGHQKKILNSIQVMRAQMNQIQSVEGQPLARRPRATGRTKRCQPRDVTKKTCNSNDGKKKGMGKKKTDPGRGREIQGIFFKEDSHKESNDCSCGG
# assay info: phosphorylation enrichment, bacterial display (enrichment ratio); higher = better substrate or ligand; peptides without Tyr show the background;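 also: 11-residue human phosphosite peptides and single-mutation variants displayed on the E. coli surface, counted by deep sequencing, each peptide's frequency after selection divided by its frequency in the unselected input library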;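 also: frequency after pTyr selection over input frequency; kinase dosed for 20-30% of maximal phosphorylation in three min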
phosphorylation enrichment reference
API doc: respond with a numeric literal and nothing else, no unit.

Take a look at these entries with their results.
INSERT INTO results (sequence_chain, measurement_target, result_value) VALUES
  ('NFRRGYHLQVL [CD200R1L_Y138_H135R]', 'EPHB2 (UniProt P29323)', 0.473),
  ('PVQAPYQKVVA [HBB_Y131_A130P]', 'EPHB2 (UniProt P29323)', 0.691),
  ('GIYEDYVEGLR [MYL6_Y89_T85I]', 'EPHB2 (UniProt P29323)', 6.61);

Query: # get_value(readout='phosphorylation enrichment', item= DLDFTYIYPNI [PTEN_Y27_L25F] )
Response: 0.945

Query: # get_value(readout='phosphorylation enrichment', item= RGGWAYVLHPT [TRMT61A_Y67_V66A] )
Response: 0.816

Query: # get_value(readout='phosphorylation enrichment', item= HYEDGYPGGSD [CTNND1_Y221] )
Response: 0.762

Query: # get_value(readout='phosphorylation enrichment', item= IAAEFYDNLPH [DEGS1_Y284_YF] )
Response: 0.68

Query: # get_value(readout='phosphorylation enrichment', item= EQKKFYNAMKK [SCN5A_Y1495_YF] )
Response: 0.317

Query: # get_value(readout='phosphorylation enrichment', item= QFKGKYLAKHN [CASK_Y712_D710G_YF] )
Response: 0.527

====

# System: c-Abl (mouse)
# assay info: phosphorylation enrichment, bacterial display (enrichment ratio); higher = better substrate or ligand; peptides without Tyr show the background
phosphorylation enrichment reference

Take a look at these entries with their results.
INSERT INTO measurements (sequence_chain, result_value) VALUES
  ('VTQEPYELFCE [CBL_Y368_Q367P_YF]', 0.817),
  ('FDNPVCQKTTE [LDLR_Y828_Y828C]', 0.877);

Query: # get_value(readout='phosphorylation enrichment', item= GARGRYIMGGP [TNK1_Y277_V278I] )
Response: 0.512

Query: # get_value(readout='phosphorylation enrichment', item= TRSYDYTEGGD [FGF7_Y58_M59T] )
Response: 0.642

Query: # get_value(readout='phosphorylation enrichment', item= LTRDIYKNDFF [ROS1_Y2110_A2106T_YF] )
Response: 0.673

Query: # get_value(readout='phosphorylation enrichment', item= CSDPSYVKQME [CDC5L_Y464_Y459C] )
Response: 0.849

Query: # get_value(readout='phosphorylation enrichment', item= LAAAKYKLNVD [SMARCA2_Y1190] )
Response: 0.593

Query: # get_value(readout='phosphorylation enrichment', item= ARGTRYRYVSQ [UCN3_Y95] )
Response: 0.608

Query: # get_value(readout='phosphorylation enrichment', item= VVHGSYDEIEG [SEC24A_Y263_S261G] )
Response: 1.07

Query: # get_value(readout='phosphorylation enrichment', item= SLNEVYTKNKT [MSH2_Y563_E562V] )
Response: 0.437

Query: # get_value(readout='phosphorylation enrichment', item= HDRREYSRFEK [ITGB7_Y758_Y753H] )
Response: 0.887

====

# measurement target: Jak2 (UniProt O60674)
# Sequence (O60674 whole entry, looked up): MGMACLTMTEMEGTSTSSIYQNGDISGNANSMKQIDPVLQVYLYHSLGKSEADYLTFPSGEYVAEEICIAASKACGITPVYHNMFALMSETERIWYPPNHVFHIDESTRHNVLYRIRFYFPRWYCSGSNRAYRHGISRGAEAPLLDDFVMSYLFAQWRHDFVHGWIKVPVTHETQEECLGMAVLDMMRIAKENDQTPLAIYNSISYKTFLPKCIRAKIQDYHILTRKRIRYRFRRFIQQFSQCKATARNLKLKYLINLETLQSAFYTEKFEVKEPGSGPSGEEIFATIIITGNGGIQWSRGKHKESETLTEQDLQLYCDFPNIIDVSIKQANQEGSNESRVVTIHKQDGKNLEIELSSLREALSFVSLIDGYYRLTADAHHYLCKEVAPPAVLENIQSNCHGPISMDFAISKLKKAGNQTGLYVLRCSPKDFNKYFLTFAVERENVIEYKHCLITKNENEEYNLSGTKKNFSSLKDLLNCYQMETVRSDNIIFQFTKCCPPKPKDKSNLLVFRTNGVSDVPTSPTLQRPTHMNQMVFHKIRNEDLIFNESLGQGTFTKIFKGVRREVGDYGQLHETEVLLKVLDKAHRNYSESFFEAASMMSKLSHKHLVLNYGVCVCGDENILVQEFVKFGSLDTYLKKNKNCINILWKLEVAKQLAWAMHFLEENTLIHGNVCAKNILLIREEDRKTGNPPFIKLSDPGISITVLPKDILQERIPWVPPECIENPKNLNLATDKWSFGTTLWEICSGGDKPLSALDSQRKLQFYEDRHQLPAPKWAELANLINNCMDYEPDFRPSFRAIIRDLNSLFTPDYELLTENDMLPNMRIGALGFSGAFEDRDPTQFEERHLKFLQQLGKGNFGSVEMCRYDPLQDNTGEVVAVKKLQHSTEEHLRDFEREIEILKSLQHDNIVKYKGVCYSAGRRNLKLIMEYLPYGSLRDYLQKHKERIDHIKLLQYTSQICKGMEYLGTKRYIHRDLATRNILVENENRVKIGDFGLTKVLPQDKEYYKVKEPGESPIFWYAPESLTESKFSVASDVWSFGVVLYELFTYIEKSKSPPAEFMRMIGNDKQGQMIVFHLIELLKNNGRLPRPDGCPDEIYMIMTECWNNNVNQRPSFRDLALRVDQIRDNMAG
# assay info: phosphorylation enrichment, bacterial display (enrichment ratio); higher = better substrate or ligand; peptides without Tyr show the background
Classification scheme (phosphorylation enrichment): 1 (below 0.7), 2 (0.7 to below 1), 3 (1 or more)

Below, 8 sequences whose answers are already recorded.
INSERT INTO assay_data (sequence_chain, cat) VALUES
  ('HLNLTYRILSF [MMP23B_Y95_F91L]', 3),
  ('LKLKAYRFSIS [LCT_Y974_V971L]', 3),
  ('ACEVLYNIVFM [NCF2_Y125_A128V]', 3),
  ('HKLSFYEFDFE [BTK_Y40_YF]', 3),
  ('DGYIDYAEFAK [MCFD2_Y138]', 2),
  ('VKPHRYRPGTV [H3-5_Y41]', 1),
  ('PVGVLYKVKVY [PTS_Y128]', 3),
  ('CGPLLYGLVHQ [PRKCG_Y122_S119P]', 3);

Query: Which category fits this record: NACGLYFKLHN [GATA2_Y376_YF]
Response: 3

Query: Which category fits this record: FIGCIYLYLTK [GARS1_Y414_R412C]
Response: 3

Query: Which category fits this record: HEGKIYEFNQV [ZNF665_Y162_YF]
Response: 1

Query: Which category fits this record: IEDPYYGNDFD [ACP1_Y133_S137F]
Response: 3

Query: Which category fits this record: VGEGPYLLSDL [ABCC12_Y7_I9L]
Response: 2

Query: Which category fits this record: CEHRGSLFLAI [TEK_Y897_Y897S_YF]
Response: 3

Query: Which category fits this record: FTFDPYSEEDP [IL2RB_Y387_YF]
Response: 3

Query: Which category fits this record: PHIKTYMRPSP [TDP1_Y497]
Response: 1

Query: Which category fits this record: NKKYHYRELPV [ERN2_Y860_H858Y]
Response: 1

Query: Which category fits this record: SARSAYQEAMD [SFN_Y151]
Response: 1

Query: Which category fits this record: GASRRYGSGVS [NEU1_Y242_W240R]
Response: 1

Query: Which category fits this record: WIPIQCPIISE [NOG_Y222_Y222C]
Response: 3

Query: Which category fits this record: SGSIHYSRVPR [GLB1_Y57]
Response: 2

Query: Which category fits this record: ASNNPYFRDQA [RPGRIP1_Y846]
Response: 1

Query: Which category fits this record: YRQLQYCPSVE [CTNND2_Y508]
Response: 2

====

# measurement target: Fyn (UniProt P06241)
# Sequence (P06241 whole entry, looked up): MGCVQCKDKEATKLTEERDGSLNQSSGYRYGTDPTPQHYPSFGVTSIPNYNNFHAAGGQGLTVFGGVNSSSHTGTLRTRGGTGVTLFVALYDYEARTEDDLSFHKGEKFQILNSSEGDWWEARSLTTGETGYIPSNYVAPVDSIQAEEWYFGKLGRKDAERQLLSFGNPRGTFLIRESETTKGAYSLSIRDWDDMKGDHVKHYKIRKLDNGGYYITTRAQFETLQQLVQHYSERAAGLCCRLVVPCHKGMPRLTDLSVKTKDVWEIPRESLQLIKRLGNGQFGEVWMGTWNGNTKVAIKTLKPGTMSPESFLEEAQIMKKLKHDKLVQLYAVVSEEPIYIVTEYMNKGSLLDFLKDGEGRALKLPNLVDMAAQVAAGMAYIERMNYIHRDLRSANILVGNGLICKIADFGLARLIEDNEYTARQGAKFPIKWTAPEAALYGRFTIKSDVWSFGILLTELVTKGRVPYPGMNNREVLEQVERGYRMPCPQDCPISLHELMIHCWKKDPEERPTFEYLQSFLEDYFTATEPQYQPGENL
# assay info: phosphorylation enrichment, bacterial display (enrichment ratio); higher = better substrate or ligand; peptides without Tyr show the background
Please mark Criterion met if the recorded phosphorylation enrichment is equal to or greater than 0.5, and Criterion not met if it falls below.

INSERT INTO results (sequence_chain, measurement_target, cat) VALUES
  ('ETEMLYGSAPR [PRC1_Y464]', 'Fyn (UniProt P06241)', 'Criterion met'),
  ('PFRFIYMAVQH [PTPN11_Y515_Q510P_YF]', 'Fyn (UniProt P06241)', 'Criterion met'),
  ('DLAGRYYALKS [CKB_Y173]', 'Fyn (UniProt P06241)', 'Criterion met');

Query: Check the entry CTTIHHNFMCN [TP53_Y234_Y234H_YF] : does phosphorylation enrichment equal or exceed 0.5?
Response: Criterion not met

Query: Check the entry QEGPEYWDGNT [HLA-B_Y83_R86G] : does phosphorylation enrichment equal or exceed 0.5?
Response: Criterion met

Query: Check the entry GQKVAYGGTED [ALDH3A1_Y305_G309E] : does phosphorylation enrichment equal or exceed 0.5?
Response: Criterion not met

Query: Check the entry EQLRAYLEGTC [HLA-C_Y183] : does phosphorylation enrichment equal or exceed 0.5?
Response: Criterion not met

====

# measurement target: Fyn (UniProt P06241)
# assay info: phosphorylation enrichment, bacterial display (enrichment ratio); higher = better substrate or ligand; peptides without Tyr show the background
parameter measured: phosphorylation enrichment
API doc: respond with a numeric literal and nothing else, no unit.

Query: # get_value(readout='phosphorylation enrichment', item= RPDSPYSRLHD [DOK2_Y271_P274L] )
Response: 0.464

Query: # get_value(readout='phosphorylation enrichment', item= EILLSYPRTGY [TGM1_Y365_L366P] )
Response: 0.418

====

# measurement target: EPHB1 (UniProt P54762)
# Sequence (P54762 whole entry, looked up): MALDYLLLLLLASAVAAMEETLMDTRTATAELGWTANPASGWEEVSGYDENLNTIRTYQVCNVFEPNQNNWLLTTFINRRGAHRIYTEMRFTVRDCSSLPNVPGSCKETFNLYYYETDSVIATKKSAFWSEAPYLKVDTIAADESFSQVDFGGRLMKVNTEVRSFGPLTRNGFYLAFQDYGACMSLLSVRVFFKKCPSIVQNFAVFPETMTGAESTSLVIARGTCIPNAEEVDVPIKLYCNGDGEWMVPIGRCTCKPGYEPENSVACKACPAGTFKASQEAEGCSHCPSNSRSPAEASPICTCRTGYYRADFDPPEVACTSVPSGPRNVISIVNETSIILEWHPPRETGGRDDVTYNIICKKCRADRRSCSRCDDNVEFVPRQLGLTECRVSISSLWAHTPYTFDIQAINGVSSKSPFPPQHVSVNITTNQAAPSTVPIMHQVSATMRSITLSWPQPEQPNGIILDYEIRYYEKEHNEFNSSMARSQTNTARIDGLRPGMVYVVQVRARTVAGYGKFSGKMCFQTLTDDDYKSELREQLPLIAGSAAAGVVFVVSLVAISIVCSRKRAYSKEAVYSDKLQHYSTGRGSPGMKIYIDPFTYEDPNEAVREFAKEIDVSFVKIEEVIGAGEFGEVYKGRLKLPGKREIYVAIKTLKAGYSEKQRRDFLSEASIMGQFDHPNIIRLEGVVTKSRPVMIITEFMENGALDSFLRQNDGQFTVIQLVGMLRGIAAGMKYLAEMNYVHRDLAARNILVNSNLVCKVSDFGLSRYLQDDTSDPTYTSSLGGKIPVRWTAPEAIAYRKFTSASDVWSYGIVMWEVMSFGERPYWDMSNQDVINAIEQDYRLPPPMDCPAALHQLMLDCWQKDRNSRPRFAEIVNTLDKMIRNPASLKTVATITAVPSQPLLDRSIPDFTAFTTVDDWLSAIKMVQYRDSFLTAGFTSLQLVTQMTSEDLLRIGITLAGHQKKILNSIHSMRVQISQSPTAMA
# assay info: phosphorylation enrichment, bacterial display (enrichment ratio); higher = better substrate or ligand; peptides without Tyr show the background
phosphorylation enrichment reference
API doc: respond with a numeric literal and nothing else, no unit.

INSERT INTO assay_data (sequence_chain, result_value) VALUES
  ('NHYKIYNPCAE [PTEN_Y68_L70P]', 0.437),
  ('KVNKIYFPDFI [LIG3_Y767_YF]', 0.427),
  ('GQECEYPPTQD [METAP2_Y137]', 0.866),
  ('AVIADYMFWLG [SPATA16_Y290_M286V]', 6.08),
  ('RHPYFYAPELL [ALB_Y174]', 0.564);

Note: attention shifts to another entry.
Query: Entry EPGSLYGCGGG [ATM_Y2019_D2016G] , system EPHB1 (UniProt P54762): what phosphorylation enrichment was measured?
Response: 0.548

====

# System: Fer (mouse)
# assay info: phosphorylation enrichment, bacterial display (enrichment ratio); higher = better substrate or ligand; peptides without Tyr show the background
parameter measured: phosphorylation enrichment
API doc: respond with a numeric literal and nothing else, no unit.

Query: Entry PSQRHYVFFFS [PTEN_Y174_R173H_YF] , system Fer (mouse): what phosphorylation enrichment was measured?
Response: 0.535

Query: Entry SIKDKYVTAFF [KCNH2_Y611_L615F_YF] , system Fer (mouse): what phosphorylation enrichment was measured?
Response: 0.483

Query: Entry TISPYYCQSLF [CRYAA_Y48_R49C] , system Fer (mouse): what phosphorylation enrichment was measured?
Response: 0.939

Query: Entry RKLASYRSCLL [DHX37_Y1080] , system Fer (mouse): what phosphorylation enrichment was measured?
Response: 0.768

Query: Entry SAGSSYSISVI [PAX5_Y179_G183V] , system Fer (mouse): what phosphorylation enrichment was measured?
Response: 0.572

Query: Entry HYEDGYPGGSD [CTNND1_Y221] , system Fer (mouse): what phosphorylation enrichment was measured?
Response: 0.908

Query: Entry KGSEGYLAAIF [NF1_Y2503_T2507I_YF] , system Fer (mouse): what phosphorylation enrichment was measured?
Response: 0.432

Query: Entry SASQEYHIVKK [PDZD2_Y557] , system Fer (mouse): what phosphorylation enrichment was measured?
Response: 0.48
